Origin of the recorded values: patent US9636335B2

test-protocol: Rodent pharmacokinetic study
Assay type: in vivo, Male Wister rats
conditions: plasma; Wistar/Male rat, 10 mg/kg, oral (gavage)
Classify as follows. Reported AUC(0-t) greater than or equal to 800 ng·h/mL: Criterion met. Reported AUC(0-t) below: Criterion not met.

Asked: Hi team, for Nc1c(Cl)cc(-c2nnc(C3CCN(C4CCC4)CC3)o2)c2c1CCCO2 , is the recorded AUC(0-t) at or above 800 ng·h/mL?
Given back: Criterion not met

Asked: I'd appreciate it if you could say whether CC(C)n1nc(-c2nnc(C3CCN(CC4CC4)CC3)o2)c2ccccc21 has AUC(0-t) at least equal to 800 ng·h/mL.
Given back: Criterion not met

Asked: Would you say CC(C)CCN1CCC(c2nnc(-c3cc(Cl)c(N)c4c3OCCC4)o2)CC1 shows AUC(0-t) at minimum 800 ng·h/mL?
Given back: Criterion met

Asked: Test whether the compound COCCN1CCC(c2nnc(-c3cc(Cl)c(N)c4c3OCCC4)o2)CC1 records AUC(0-t) of 800 ng·h/mL or higher.
Given back: Criterion met

Kindly review the next compound as well.
Asked: Does the reported AUC(0-t) for CCOC(=O)N1CCC(N2CCC(c3nnc(-c4cc(Cl)c(N)c5c4OCCC5)o3)CC2)CC1 fall at or above the 800 ng·h/mL mark?
Given back: Criterion met
